Provenance of the data: ChEMBL document CHEMBL1127031

Biological target: D(2) dopamine receptor (Rattus norvegicus)
Sequence (P61169 whole entry): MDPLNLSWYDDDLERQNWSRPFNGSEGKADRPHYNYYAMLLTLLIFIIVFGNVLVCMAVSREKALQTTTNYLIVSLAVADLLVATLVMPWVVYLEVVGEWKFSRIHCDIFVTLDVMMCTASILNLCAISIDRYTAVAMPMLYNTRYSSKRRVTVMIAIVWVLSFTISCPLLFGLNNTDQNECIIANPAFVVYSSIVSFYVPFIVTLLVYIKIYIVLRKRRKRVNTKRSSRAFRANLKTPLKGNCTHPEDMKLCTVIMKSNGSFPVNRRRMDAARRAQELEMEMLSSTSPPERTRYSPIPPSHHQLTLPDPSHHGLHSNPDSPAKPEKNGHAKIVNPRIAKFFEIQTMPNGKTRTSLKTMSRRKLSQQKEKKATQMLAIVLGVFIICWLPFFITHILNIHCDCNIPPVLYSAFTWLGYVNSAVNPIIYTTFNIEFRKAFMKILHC
Test: The binding affinity was measured on dopamine receptor D2 using [3H]- spiperone as radioligand.
Ki values by entry

{"columns": ["COMPOUND", "Ki"],
 "data": [
  ["Cc1nccn1C[C@H]1CCc2c(c3cccc4c3n2CCC4)C1=O", "> 10 µM"],
  ["Cc1nccn1CC1CCc2c(c3ccccc3n2C)C1=O (configuration not stated)", "> 10 µM"]
]}

* * *

Biological target: Muscarinic acetylcholine receptor M1 (Rattus norvegicus)
Sequence (P08482 whole entry): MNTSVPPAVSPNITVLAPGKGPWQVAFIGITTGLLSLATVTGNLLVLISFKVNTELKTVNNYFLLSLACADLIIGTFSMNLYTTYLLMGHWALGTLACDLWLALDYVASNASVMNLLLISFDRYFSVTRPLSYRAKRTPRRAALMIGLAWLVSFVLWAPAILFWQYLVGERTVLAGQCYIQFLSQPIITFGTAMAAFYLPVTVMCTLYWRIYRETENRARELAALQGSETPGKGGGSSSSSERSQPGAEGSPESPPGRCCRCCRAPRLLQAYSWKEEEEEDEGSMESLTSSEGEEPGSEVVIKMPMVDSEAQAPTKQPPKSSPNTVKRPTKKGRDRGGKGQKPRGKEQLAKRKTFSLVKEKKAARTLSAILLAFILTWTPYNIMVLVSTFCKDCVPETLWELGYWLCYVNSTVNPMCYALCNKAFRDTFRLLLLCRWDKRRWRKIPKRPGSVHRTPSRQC

{"columns": ["SMILES_REPR", "Ki, nM"],
 "data": [
  ["Cc1nccn1C[C@H]1CCc2c(c3cccc4c3n2CCC4)C1=O", 910]
]}
